Taken from patent US8471005B2.

# assayed_system: JAK2 (Homo sapiens)
# Construct: host or cells: baculovirus expression system
# method: Recombinant Human JAK2 Kinase Assay (TRF)
# Format: biochemical
# details: JAK2 kinase inhibition, 0.2 μM ATP; read-out: JAK2 Potency
measured_parameter: IC50

Worked set:
Given item COc1ccc(-c2ccc3cnc(Nc4ccc(N5CCOCC5)cc4)nn23)cn1 , the value recorded as its IC50 is < 100 nM

Given item CC(C)(C)NS(=O)(=O)c1cccc(-c2ccc3cnc(Nc4ccc5c(c4)CN(CC(N)=O)C5)nn23)c1 , the value recorded as its IC50 is < 100 nM

Given item COc1cc(C2CCN(CC(C)(C)O)CC2)ccc1Nc1ncc2ccc(-c3ccccc3N(C)S(C)(=O)=O)n2n1 , the value recorded as its IC50 is 100 to 1000 nM

Given item COc1ccccc1-c1ccc2cnc(Nc3ccc4cnn(CCN5CCOCC5)c4c3)nn12 , the value recorded as its IC50 is < 100 nM

Given item COc1ccccc1-c1ccc2cnc(Nc3ccc4nc[nH]c4c3)nn12 , the value recorded as its IC50 is < 100 nM

Next:
Given item COc1cc(C2CCN(CC(N)=O)C2)ccc1Nc1ncc2ccc(-c3ccccc3N(C)S(C)(=O)=O)n2n1 (racemic) , the value recorded as its IC50 is 100 to 1000 nM

Given item CC(=O)N1CCCCc2ccc(Nc3ncc4ccc(-c5ccccc5N(C)S(C)(=O)=O)n4n3)cc21 , the value recorded as its IC50 is < 100 nM

Given item CC(C)(C)NS(=O)(=O)c1cccc(-c2ccc3cnc(Nc4ccc(C5CCC(N6CCCC6)CC5)cc4)nn23)c1 (centres unmarked) , the value recorded as its IC50 is < 100 nM

----------
# assayed_system: JAK2 (Homo sapiens, UniProt O60674)
# Construct: host or cells: baculovirus expression system
# Sequence (O60674 whole entry): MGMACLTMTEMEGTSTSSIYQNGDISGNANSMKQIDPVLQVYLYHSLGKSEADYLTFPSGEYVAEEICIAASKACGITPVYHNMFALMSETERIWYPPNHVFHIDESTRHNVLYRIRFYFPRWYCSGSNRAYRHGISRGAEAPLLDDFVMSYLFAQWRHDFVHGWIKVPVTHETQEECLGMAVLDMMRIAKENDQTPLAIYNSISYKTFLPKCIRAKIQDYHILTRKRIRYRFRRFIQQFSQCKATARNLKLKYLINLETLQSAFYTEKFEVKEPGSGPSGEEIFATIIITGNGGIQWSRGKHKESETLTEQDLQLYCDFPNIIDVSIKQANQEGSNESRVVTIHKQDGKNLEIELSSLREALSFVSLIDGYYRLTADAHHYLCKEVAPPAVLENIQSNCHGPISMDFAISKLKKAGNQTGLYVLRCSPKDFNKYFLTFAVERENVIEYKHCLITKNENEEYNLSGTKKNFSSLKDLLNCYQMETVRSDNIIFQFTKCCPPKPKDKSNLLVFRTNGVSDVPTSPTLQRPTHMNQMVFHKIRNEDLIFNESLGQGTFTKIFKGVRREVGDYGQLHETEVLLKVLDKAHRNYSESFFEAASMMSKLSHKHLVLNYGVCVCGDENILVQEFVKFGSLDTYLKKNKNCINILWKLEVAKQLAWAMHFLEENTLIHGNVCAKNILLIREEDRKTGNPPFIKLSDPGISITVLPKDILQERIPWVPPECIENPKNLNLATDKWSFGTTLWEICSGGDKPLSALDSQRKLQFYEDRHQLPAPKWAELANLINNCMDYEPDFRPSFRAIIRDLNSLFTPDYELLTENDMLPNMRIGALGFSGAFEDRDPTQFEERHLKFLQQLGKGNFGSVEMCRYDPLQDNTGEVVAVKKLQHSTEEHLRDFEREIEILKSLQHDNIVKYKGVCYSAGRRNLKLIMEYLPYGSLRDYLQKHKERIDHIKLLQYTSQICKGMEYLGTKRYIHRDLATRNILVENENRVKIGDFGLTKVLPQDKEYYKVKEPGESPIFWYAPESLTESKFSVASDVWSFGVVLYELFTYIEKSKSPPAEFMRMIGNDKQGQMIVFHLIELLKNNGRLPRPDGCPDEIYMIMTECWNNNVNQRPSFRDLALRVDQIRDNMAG
# method: Recombinant Human JAK2 Kinase Assay (TRF)
# Type: biochemical
# details: JAK2 kinase inhibition, 0.2 μM ATP; read-out: JAK2 Potency
measured_parameter: IC50

Worked set:
Given item CNC(=O)c1cccc(Nc2ncc3ccc(-c4cnn(C)c4)n3n2)c1 [Example 965] , the value recorded as its IC50 is < 100 nM

Given item OC[C@@H](O)CN1CCC(c2ccc(Nc3ncc4ccc(-c5cccc(Cl)c5)n4n3)cc2)CC1 [Example 1130] , the value recorded as its IC50 is < 100 nM

Given item COc1cc(-c2ccc3cnc(Nc4ccc(C5CCN(CC(N)=O)CC5)cc4)nn23)c(OC)nn1 [Example 580] , the value recorded as its IC50 is < 100 nM

Given item CN(c1ccccc1-c1ccc2cnc(OCCN3CCN(c4ccc(N)cc4)CC3)nn12)S(C)(=O)=O [Example 1172] , the value recorded as its IC50 is 1000 to 10000 nM

Given item CC(C)Oc1cccc(-c2ccc3cnc(Nc4ccc(C5CCN(CC(N)=O)CC5)cc4)nn23)c1 [Example 588] , the value recorded as its IC50 is < 100 nM

Given item COc1cc(N2CCCN(C[C@@H](C)O)CC2)ccc1Nc1ncc2ccc(-c3ccccc3N(C)S(C)(=O)=O)n2n1 [Example 772] , the value recorded as its IC50 is 100 to 1000 nM

Given item COc1cc([C@@H]2CCN(CCO)C[C@@H]2O)ccc1Nc1ncc2ccc(-c3ccccc3N(C)S(C)(=O)=O)n2n1 (racemic) [Example 847] , the value recorded as its IC50 is 100 to 1000 nM

Given item COc1ccc(-c2ccc3cnc(Nc4cccc(N)c4)nn23)cn1 [Example 898] , the value recorded as its IC50 is < 100 nM

Given item N#CCCn1cc(-c2ccc3cnc(Nc4ccc(C5CCN(CC(N)=O)CC5)cc4)nn23)cn1 [Example 933] , the value recorded as its IC50 is < 100 nM

Given item COc1ccccc1-c1ccc2cnc(Nc3cccc(OCC4CCCN4C)c3)nn12 (stereo not shown) [Example 1006] , the value recorded as its IC50 is < 100 nM

Next:
Given item CN1CCC(c2ccc(Nc3ncc4ccc(-c5ccccc5N(C)S(C)(=O)=O)n4n3)cc2)CC1 [Example 1178] , the value recorded as its IC50 is < 100 nM

Given item COc1cc(C2=CCNCC2)ccc1Nc1ncc2ccc(-c3ccccc3N(C)S(C)(=O)=O)n2n1 [Example 742] , the value recorded as its IC50 is 100 to 1000 nM

Given item CN1CCN(c2ccc(Nc3ncc4ccc(-c5ccccc5CNCCS(C)(=O)=O)n4n3)cc2)CC1 [Example 1199] , the value recorded as its IC50 is < 100 nM

Given item CC(C)(C)NS(=O)(=O)c1cccc(-c2ccc3cnc(Nc4cccc(N)c4)nn23)c1 [Example 896] , the value recorded as its IC50 is < 100 nM

Given item CN1CCN(c2ccc(Nc3ncc4ccc(-c5ccccc5OCC(=O)O)n4n3)cc2)CC1 [Example 1182] , the value recorded as its IC50 is < 100 nM

Given item CN(c1ccccc1-c1ccc2cnc(Nc3ccc4c(c3)ncn4CCN3CCOCC3)nn12)S(C)(=O)=O [Example 1335] , the value recorded as its IC50 is < 100 nM

----------
# assayed_system: JAK2 (Homo sapiens, UniProt O60674)
# Construct: host or cells: baculovirus expression system
# method: Recombinant Human JAK2 Kinase Assay (TRF)
# Assay type: biochemical
# details: JAK2 Kinase Inhibition; read-out: JAK2 Potency
# Description: Compounds were tested for their ability to inhibit the kinase activity of baculovirus-expressed JAK2 using the TRF detection system. […] The plates were coated first with 100 μL/well of 10 μg/mL Neutravidin (Pierce #31000, Rockford, Ill.) in TBS at 37° C. for 2 hours, followed by 100 μL/well of 1 μg/mL 15-mer peptide substrate (biotinyl-amino-hexanoyl-[…]-amide, Infinity Biotech Research and Resource, Aston, Pa.) at 37° C. for another hour. […]
measured_parameter: IC50

Worked set:
Given item COc1cc(N2CCN(C[C@H](C)O)CC2)c(F)cc1Nc1ncc2ccc(-c3ccccc3N(C)S(C)(=O)=O)n2n1 [Example 1479] , the value recorded as its IC50 is 100 to 1000 nM

Given item CC(C)(C)NS(=O)(=O)c1cccc(-c2ccc3cnc(Nc4ccc(N5CCOCC5)c(F)c4)nn23)c1 [Example 1395] , the value recorded as its IC50 is < 100 nM

Given item CCCS(=O)(=O)Nc1cccc(-c2ccc3cnc(Nc4ccc(N5CCN(C)CC5)cc4)nn23)c1 [Example 417] , the value recorded as its IC50 is < 100 nM

Given item CC(C)(C)NS(=O)(=O)c1cccc(-c2ccc3cnc(Nc4ccc(C5CNCCN5)cc4)nn23)c1 (stereo not shown) [Example 1528] , the value recorded as its IC50 is < 100 nM

Given item COCCOc1ncc2ccc(-c3cccc(Cl)c3)n2n1 [Example 190] , the value recorded as its IC50 is < 100 nM

Next:
Given item CN1CCC(c2ccc(Nc3ncc4ccc(-c5ccccc5OCC(N)=O)n4n3)cc2)CC1 [Example 1409] , the value recorded as its IC50 is < 100 nM

Given item CS(=O)(=O)c1cccc(-c2ccc3cnc(Nc4cccc(C5(O)CCNCC5)c4)nn23)c1 [Example 1552] , the value recorded as its IC50 is < 100 nM

Given item CS(=O)(=O)c1ccc(-c2ccc3cnc(Nc4ccc5[nH]c(CN6CCOCC6)nc5c4)nn23)cc1 [Example 1541] , the value recorded as its IC50 is < 100 nM

Given item CN1CCN(c2ccc(Nc3ncc4ccc(-c5ccccc5S(=O)(=O)NC(C)(C)C)n4n3)cc2)CC1 [Example 411] , the value recorded as its IC50 is < 100 nM

----------
# assayed_system: ALK (Homo sapiens, UniProt Q9UM73)
# Construct: host or cells: baculovirus expression system
# Sequence (Q9UM73 19-1620): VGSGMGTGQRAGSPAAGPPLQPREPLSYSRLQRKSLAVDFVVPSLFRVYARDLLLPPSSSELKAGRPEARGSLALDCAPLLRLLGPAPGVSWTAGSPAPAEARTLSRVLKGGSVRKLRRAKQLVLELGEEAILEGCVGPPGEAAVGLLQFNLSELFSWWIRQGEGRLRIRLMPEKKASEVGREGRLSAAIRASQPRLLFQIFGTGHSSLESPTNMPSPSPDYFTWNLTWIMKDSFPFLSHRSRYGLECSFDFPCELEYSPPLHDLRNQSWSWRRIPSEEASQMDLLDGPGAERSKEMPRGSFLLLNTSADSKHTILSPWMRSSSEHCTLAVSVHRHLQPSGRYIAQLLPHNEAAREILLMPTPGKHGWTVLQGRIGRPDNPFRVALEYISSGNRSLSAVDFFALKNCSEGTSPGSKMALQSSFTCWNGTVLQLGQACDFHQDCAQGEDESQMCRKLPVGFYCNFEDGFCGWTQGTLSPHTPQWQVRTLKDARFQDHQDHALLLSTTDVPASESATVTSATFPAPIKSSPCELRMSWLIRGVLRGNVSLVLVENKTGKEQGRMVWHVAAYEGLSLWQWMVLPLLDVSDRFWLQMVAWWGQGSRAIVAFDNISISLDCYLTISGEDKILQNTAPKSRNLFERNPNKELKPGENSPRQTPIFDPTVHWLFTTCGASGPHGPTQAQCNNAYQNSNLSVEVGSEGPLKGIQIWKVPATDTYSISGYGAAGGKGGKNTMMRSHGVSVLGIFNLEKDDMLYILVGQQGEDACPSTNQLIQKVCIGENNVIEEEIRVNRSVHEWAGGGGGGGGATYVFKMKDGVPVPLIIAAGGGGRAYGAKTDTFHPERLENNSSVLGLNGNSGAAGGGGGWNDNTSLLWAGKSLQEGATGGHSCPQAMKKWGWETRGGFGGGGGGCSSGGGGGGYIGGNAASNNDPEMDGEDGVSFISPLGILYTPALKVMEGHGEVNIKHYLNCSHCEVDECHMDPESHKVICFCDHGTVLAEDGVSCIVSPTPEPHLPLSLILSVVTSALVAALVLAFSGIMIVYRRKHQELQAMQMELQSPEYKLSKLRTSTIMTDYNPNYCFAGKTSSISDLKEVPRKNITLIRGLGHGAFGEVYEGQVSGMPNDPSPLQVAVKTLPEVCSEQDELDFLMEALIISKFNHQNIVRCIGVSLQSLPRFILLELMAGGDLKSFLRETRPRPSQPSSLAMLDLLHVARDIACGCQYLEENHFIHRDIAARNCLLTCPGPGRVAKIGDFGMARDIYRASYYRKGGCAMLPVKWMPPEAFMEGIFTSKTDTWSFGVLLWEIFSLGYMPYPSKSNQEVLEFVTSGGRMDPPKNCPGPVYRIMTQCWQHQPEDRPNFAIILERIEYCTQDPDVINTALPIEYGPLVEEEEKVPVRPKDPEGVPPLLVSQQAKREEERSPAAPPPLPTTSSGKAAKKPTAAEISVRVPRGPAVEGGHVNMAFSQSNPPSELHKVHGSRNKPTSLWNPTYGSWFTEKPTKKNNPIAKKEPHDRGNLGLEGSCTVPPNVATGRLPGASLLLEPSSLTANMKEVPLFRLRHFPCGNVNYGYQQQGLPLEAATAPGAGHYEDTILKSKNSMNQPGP
# method: ALK Kinase Assay (ELISA/TRF, PLC-γ substrate)
# Format: biochemical
# details: ALK Kinase Inhibition; read-out: ALK Potency
pIC50: −log10 of the molar value.
pIC50 overview

Result for CCS(=O)(=O)Nc1cccc(-c2ccc3cnc(Nc4ccc(N5CCOCC5)cc4)nn23)c1 , tested on ALK (Homo sapiens, UniProt Q9UM73), pIC50: 6.00 to 7.00

Next:
Result for COc1cc(N2CCC(N3CCN(C)CC3)CC2)ccc1Nc1ncc2cc3ccccc3n2n1 , tested on ALK (Homo sapiens, UniProt Q9UM73), pIC50: 6.00 to 7.00

Result for COc1cc(Nc2ncc3ccc(-c4cccc(Cl)c4)n3n2)ccc1N1CCN(C)CC1 , tested on ALK (Homo sapiens, UniProt Q9UM73), pIC50: > 7.00

Result for COc1ccc(-c2ccc3cnc(Nc4ccc(C(F)(F)C(=O)N5CCN(C)CC5)cc4)nn23)cn1 , tested on ALK (Homo sapiens, UniProt Q9UM73), pIC50: 5.00 to 6.00

----------
# assayed_system: ALK (Homo sapiens)
# Construct: host or cells: baculovirus expression system
# method: ALK Kinase Assay (ELISA/TRF, PLC-γ substrate)
# Type: biochemical
# details: ALK kinase inhibition, 1 μM ATP; read-out: ALK Potency
# Procedure: Briefly, each 96-well plate was coated with […] of 10 μg/mL substrate (phospholipase C-γ) in Tris-buffered saline (TBS). […] The reaction was initiated by adding enzyme (30 ng/ml ALK) and was allowed to proceed at 37° C. for 15 minutes. Detection of the phosphorylated product was performed by adding 100 μl/well of Eu—N1 labeled PT66 antibody (Perkin Elmer # AD0041). Data analysis was performed using ActivityBase (IDBS, Guilford, UK). […]
IC50 overview

Worked set:
Given item CN1CCC(c2ccc(Nc3ncc4ccc(-c5cccc(S(=O)(=O)N(C)C)c5)n4n3)cc2)CC1 [Example 902] , the value recorded as its IC50 is 100 to 1000 nM

Given item COc1cc(N2CCN(C[C@H](C)O)CC2)ccc1Nc1ncc2ccc(-c3c(OC)cccc3OC)n2n1 [Example 543] , the value recorded as its IC50 is < 100 nM

Given item CN(c1ncccc1-c1ccc2cnc(Nc3ccc(C4CCN(CC(N)=O)CC4)cc3)nn12)S(C)(=O)=O [Example 1258] , the value recorded as its IC50 is < 100 nM

Given item CN1CCN(c2ccc(Nc3ncc4ccc(C5=CCN(C(=O)OC(C)(C)C)CC5)n4n3)cc2)CC1 [Example 1135] , the value recorded as its IC50 is 100 to 1000 nM

Given item COc1cc(CCN2CCN(C)CC2)ccc1Nc1ncc2ccc(-c3ccccc3N(C)S(C)(=O)=O)n2n1 [Example 491] , the value recorded as its IC50 is < 100 nM

Next:
Given item COc1cc(N2CCC(N3CCN(C)CC3)CC2)ccc1Nc1ncc2ccc(-c3cccc(S(=O)(=O)NC(C)(C)C)c3)n2n1 [Example 534] , the value recorded as its IC50 is < 100 nM

Given item CN1CCN(c2cccc(Nc3ncc4ccc(-c5cnn(CCC#N)c5)n4n3)c2)CC1 [Example 977] , the value recorded as its IC50 is 100 to 1000 nM

Given item O=S1(=O)CCN(Cc2ccc(Nc3ncc4ccc(-c5cccnc5)n4n3)cc2)CC1 [Example 1050] , the value recorded as its IC50 is 1000 to 10000 nM

Given item CN1CCc2ccc(Nc3ncc4c(-c5ccc(F)cc5)ccn4n3)cc2C1 [Example 728] , the value recorded as its IC50 is > 10000 nM

Given item COc1cc(C2CCCN(CC(N)=O)C2)ccc1Nc1ncc2ccc(-c3ccccc3N(C)S(C)(=O)=O)n2n1 (racemic) [Example 861] , the value recorded as its IC50 is < 100 nM
